- Tested on: E. coli
- Type: cell-based, Escherichia coli
- Run parameters: Mueller-Hinton Broth, 37° C., 18 hours, up to 20 μM; read-out: IC50 against E. coli
Consider the following substances and their measured IC50 readings.

As a guide, the following entries are already answered.
HXL009: Class I plant defensin from Zea mays (TVCMRHNNFYHGPCMSNKDCANSCVQHNLGVGGYCRGKIPFNKECMCTFEC; HXL009 Zea mays): > 20 µM
HXL013: Class I plant defensin from Glycine max (KDCLTRRHGFQGRCLFDRQCAHVCRSDGFIGGQCRGPLRKCFCSRPC; HXL013 Glycine max): > 20 µM

// below: IC50 requested for another substance
Value of measured IC50 for the entry HXL002: Class I plant defensin from Triticum aestivum (RDCLSQSHKFKGACLSSSNCAAVCRTENFPDGECHTHNFARKCFCKRAC; HXL002 Triticum aestivum) : > 20 µM

====

- Test system: M. fulvum
- Test name: Inhibition of growth of Microsporum fulvum by plant defensins (microtitre A595 antifungal assay)
- Type: cell-based
- Run parameters: ½ strength PDB, 30° C., A595
Exam item: assign Fulfilled to entries whose IC50 against M. fulvum is below 10 µg/mL and Not fulfilled to entries at or above 10 µg/mL. Note that a value of exactly 10 µg/mL receives Not fulfilled.

Consider the following illustrative entries.
HXL015: Class I plant defensin from Oryza sativa (RHCLSQSHRFKGMCVSSNNCANVCRTESFPDGECKSHGLERKCFCKKVC; HXL015 Oryza sativa): Not fulfilled
HXL008: Class I plant defensin from Picramnia pentandra (KVCTKPSKFFKGLCGTDGACTTACRKEGLHSGYCQLKGFLNSVCVCRKHC; HXL008 Picramnia pentandra): Fulfilled
HXL003: Class I plant defensin from Triticum aestivum (ARDCTSQSHKFVGLCLSDRNCASVCLTEYFTGGKCDHRRCVCTKGC; HXL003 Triticum aestivum): Not fulfilled

Would you kindly verify if IC50 against M. fulvum of HXL002: Class I plant defensin from Triticum aestivum (RDCLSQSHKFKGACLSSSNCAAVCRTENFPDGECHTHNFARKCFCKRAC; HXL002 Triticum aestivum) is strictly less than 10 µg/mL?
Not fulfilled

Would you kindly verify if IC50 against M. fulvum of NaD1: Solanaceous Class II plant defensin from Nicotiana alata (RECKTESNTFPGICITKPPCRKACISEKFTDGHCSKILRRCLCTKPC; NaD1 Nicotiana alata) is strictly less than 10 µg/mL?
Fulfilled

Would you kindly verify if IC50 against M. fulvum of HXL035: Class I plant defensin from Picramnia pentandra (KVCTKPSKFFKGLCGFDRDCTVACKKEGLASGFCQNKGFFNVVCVCRKPC; HXL035 Picramnia pentandra) is strictly less than 10 µg/mL?
Fulfilled

Would you kindly verify if IC50 against M. fulvum of HXL013: Class I plant defensin from Glycine max (KDCLTRRHGFQGRCLFDRQCAHVCRSDGFIGGQCRGPLRKCFCSRPC; HXL013 Glycine max) is strictly less than 10 µg/mL?
Fulfilled

====

- Test system: A. flavus
- Test name: Inhibition of growth of A. flavus, Example 2 antifungal assay
- Type: cell-based
- Run parameters: ½ strength PDB, 30° C., A595
Consider the following substances and their measured IC50 against A. flavus readings.
Field format: number, assumed µg/mL, no unit text.

As a guide, the following entries are already answered.
HXL005: Class I plant defensin from Taraxcum kok-saghyz (KMCQTTSHAFSCVNDSGCSGSCEKQGFASGKCDGVRRRCTCYKKC; HXL005 Taraxcum kok-saghyz): 25
NaD1: Solanaceous Class II plant defensin from Nicotiana alata (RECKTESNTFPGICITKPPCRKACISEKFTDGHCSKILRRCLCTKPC; NaD1 Nicotiana alata): 20
HXL035: Class I plant defensin from Picramnia pentandra (KVCTKPSKFFKGLCGFDRDCTVACKKEGLASGFCQNKGFFNVVCVCRKPC; HXL035 Picramnia pentandra): 25
HXL008: Class I plant defensin from Picramnia pentandra (KVCTKPSKFFKGLCGTDGACTTACRKEGLHSGYCQLKGFLNSVCVCRKHC; HXL008 Picramnia pentandra): 40

// below: IC50 against A. flavus requested for another substance
Value of measured IC50 against A. flavus for the entry HXL012: Class I plant defensin from Amaranthus retroflexus (RMCKAPSKLFRGMCGIRDSNCDSVCRAEGMAAGDCHGLRRRCICSRPC; HXL012 Amaranthus retroflexus) : 45

====

- System: C. gattii
- Test name: Inhibition of growth of C. gattii, Example 2 antifungal assay
- Assay type: cell-based
- Run parameters: ½ strength PDB, 30° C., A595
Recorded metric: IC50 against C. gattii

As a guide, the following entries are already answered.
HXL013: Class I plant defensin from Glycine max (KDCLTRRHGFQGRCLFDRQCAHVCRSDGFIGGQCRGPLRKCFCSRPC; HXL013 Glycine max): 22 µg/mL
HXL009: Class I plant defensin from Zea mays (TVCMRHNNFYHGPCMSNKDCANSCVQHNLGVGGYCRGKIPFNKECMCTFEC; HXL009 Zea mays): 38 µg/mL

// below: IC50 against C. gattii requested for another substance
Value of measured IC50 against C. gattii for the entry HXL012: Class I plant defensin from Amaranthus retroflexus (RMCKAPSKLFRGMCGIRDSNCDSVCRAEGMAAGDCHGLRRRCICSRPC; HXL012 Amaranthus retroflexus) : 38 µg/mL

====

- Tested on: Trichophyton rubrum, T. interdigitale, Microsporum fulvum and C. albicans
- Test name: Inhibition assays of Example 1, summary across the range of fungal pathogens
- Format: cell-based
- Run parameters: summary of Table 3, at the concentrations tested
Recorded metric: Activity across the range of fungal pathogens

HXL013: Class I plant defensin from Glycine max (KDCLTRRHGFQGRCLFDRQCAHVCRSDGFIGGQCRGPLRKCFCSRPC; HXL013 Glycine max): intermediate activity
HXL004: Class I plant defensin from Nicotiana benthamiana (RTCESQSHRFKGLCFSRSNCASVCHTEGFNGGHCRGFRRRCFCTRHC; HXL004 Nicotiana benthamiana): intermediate activity
